Just for reference, the supplement of paper PMC9732359 is where these values come from.

- protocol: protein stability index of a GFP-peptide fusion (yeast GPS) (PSI 1-4); higher = more stable; sorted into four equal gates, so the index is relative within each strain
- experimental context: pdr5∆
measured property: protein stability index

> print(dat)
                            seq.string        measured.property  assay.result
 1            ISTRERDYLVDTLKLRE [RRP6]  protein stability index          2.72
 2            YISNLLYGVTICYNKKT [REC8]  protein stability index          1.27
 3            LNSTLESLYDLIEFQPS [MED6]  protein stability index          2.85
 4            CCTKFFTMMTSEPLTLK [PCI8]  protein stability index          2.15
 5            ASRDKTLISWKLTGDDQ [ASC1]  protein stability index          1.68
 6  SFNIPRLTFKPWVVYLQ [YMR129W/POM152]  protein stability index          1.29
 7            KIALMNIPKPLNSYHIK [RGR1]  protein stability index          1.81
 8            CTESTRENALYDYYALQ [SNF2]  protein stability index          2.25
 9            IEALYDDDTFSDREMAA [RPN2]  protein stability index          1.89
10            IKEFVDDLKKDHIAIDW [DSN1]  protein stability index          2.96
11            EEVVSNDEGVWDLVDER [PRP8]  protein stability index          3.47
12            AASLIMPFLDNQVNFKN [PRE7]  protein stability index           2.7
13            VSIDIEEPQLDLLDDVL [MTW1]  protein stability index          3.09
14            VKPQYDEIHIPAPSKPV [BRR2]  protein stability index          2.59
15            SDREMAALIASKVYYNL [RPN2]  protein stability index          1.83
16            PEPSHIDQVMMSVSDND [RET1]  protein stability index          2.06
17            FIKLQKIDIIELQKSLS [FAS1]  protein stability index             2
18            SIGASIADLASLEQLLG [YCS4]  protein stability index          2.94
19           KQGRIKNATEELLRLAN [CSN12]  protein stability index             3
20          RQNRNQEIFDANVQRLK [RPL13A]  protein stability index          3.19
21            GEYSVKLLKGATLYIPK [FAS2]  protein stability index          2.87
22            WLETYSENRDKFLQEFI [IRR1]  protein stability index          1.93
23           KARTNLHQHVVLKCLKS [RPC34]  protein stability index          2.64

###

- protocol: protein stability index of a GFP-peptide fusion (yeast GPS) (PSI 1-4); higher = more stable; sorted into four equal gates, so the index is relative within each strain
- experimental context: doa10∆
Kindly return true (1) if reported protein stability index is no lower than 2; return false (0) if it is lower.

> print(dat)
                   seq.string  answer.label
 1  KERSDGKRHIFDVNTLC [CDC53]     false (0)
 2   FRFQGGIIVAVDSRATA [PRE2]     false (0)
 3   LGICTHLGCVPIGEAGD [RIP1]      true (1)
 4   KLKLLRMERIKDHLLLE [RPT2]      true (1)
 5   LDELQWKSPEWIQVFGL [MED6]      true (1)
 6   LSIWIKNYPEYFLKVTF [IRR1]     false (0)
 7   PTHIWNAKRSHMMKRWG [POP1]      true (1)
 8   HGAASFLKERLMEASDA [RPB2]     false (0)
 9   KKNLGRLTRLWIKNEQE [PRP8]     false (0)
10  TLDYAERHGYIRGIVKQ [RPL2A]     false (0)
11   VDSQGLPYNWDALEMQW [ARP7]     false (0)
12   IQLNGGSISEKVDWARE [RPL3]      true (1)

###

- protocol: protein stability index of a GFP-peptide fusion (yeast GPS) (PSI 1-4); higher = more stable; sorted into four equal gates, so the index is relative within each strain
- experimental context: pdr5∆
Kindly return Condition met if reported protein stability index is no lower than 2; return Condition not met if it is lower.

> print(dat)
                   seq.string       answer.label
1    NRYAYVLSSLMFANMKV [LRP1]      Condition met
2    EKIKDIHNTKLPAYSGE [POP1]      Condition met
3    EGTSISVHLIECYKQLF [YCS4]      Condition met
4  PKDKAIKRMAIRNIVEA [RPS26A]  Condition not met
5     EHIIRDVHNGYILRYLH [COB]  Condition not met

###

- protocol: protein stability index of a GFP-peptide fusion (yeast GPS) (PSI 1-4); higher = more stable; sorted into four equal gates, so the index is relative within each strain
- experimental context: doa10∆
Quick reference for protein stability index among some sequences
measured property: protein stability index

> print(dat)
                            seq.string        measured.property  assay.result
 1   FGGSQPNSGTATTGGFG [YGR119C/NUP57]  protein stability index          2.98
 2            MVVQKYKLSTVVLRLYL [GRR1]  protein stability index          1.66
 3            GHSQFTSHYQNYHPNAS [RPN4]  protein stability index          2.56
 4            LIHPENFTCNRKILNFK [SWI1]  protein stability index          2.17
 5  SFNIPRLTFKPWVVYLQ [YMR129W/POM152]  protein stability index           1.2
 6           GEPEAGNKALEDEEEFS [RPC34]  protein stability index          3.18
 7            LVPTASFFIASQLQEQF [FAS1]  protein stability index          1.35
 8            SIEFAKREKRVFLKHSL [RPN6]  protein stability index          3.24
 9            DEEELGQRTAYHSKRDA [RPB2]  protein stability index           3.4
10            PTKTLTTKERKKSRLGN [PRP8]  protein stability index          2.33
11            QEQITLYDHWDKYHEQW [SSN8]  protein stability index          3.32
12  SPVQDWNLLRSLYIFFT [YML103C/NUP188]  protein stability index          2.38
13           SKGSFINIAQMSACVGQ [RPO21]  protein stability index          1.44
14            CFMHLLVQLFLWDSKEL [RPN3]  protein stability index          1.23
15            LESISHAGTAIGIMASD [PRE9]  protein stability index          1.45
16           QPTIRKDGLKLVGSWKK [RPO21]  protein stability index          3.52
17            GSFNEMKRNCGQIITLF [RMP1]  protein stability index          2.74
18            DTDNECVAAWGVCNHAF [HRT1]  protein stability index          3.25
19            SPSPILLTSAGCKNGSF [NUT1]  protein stability index          2.01
20           SLPHFPKNSKTPQSKGF [RPO31]  protein stability index          2.94
21            DILAKLFSLEKPNLNYF [SWI1]  protein stability index          2.02
22           SKIFNESFPDDIPLAKA [CDC53]  protein stability index          2.68
23           ENEISSLLAMHKHNIMK [CDC53]  protein stability index          2.92
24            THSKLFADKKRDCIDIS [PRP8]  protein stability index          3.45
25          RQNRNQEIFDANVQRLK [RPL13A]  protein stability index          3.15
26           TSIHSTISILAAPSGNY [RRP43]  protein stability index          1.59
27           TAETGYIQRRLVKALED [RPO21]  protein stability index          2.31
28            HRLTLEDPVTVEYLTRY [PRE6]  protein stability index          3.33
29           TMLENITLRGVENIERV [RPO21]  protein stability index          3.23
